Observed IC50 for MATE1 (Homo sapiens), reported per entry below.
Write the value in nM as a bare number.

1. CC(=O)N1CCN(c2ccc(OCC3COC(Cn4ccnc4)(c4ccc(Cl)cc4Cl)O3)cc2)CC1 (racemic) [Ketoconazole, ketoconazole] :: 279

As a next step, examine the compound that follows.
Give IC50 (MATE1 (Homo sapiens)) of the following compound: CC(=O)N1CCN(c2ccc(OC[C@@H]3CO[C@@](Cn4ccnc4)(c4ccc(Cl)cc4Cl)O3)cc2)CC1 (relative stereo) [Levoketoconazole]
248

###

Target protein (sequence): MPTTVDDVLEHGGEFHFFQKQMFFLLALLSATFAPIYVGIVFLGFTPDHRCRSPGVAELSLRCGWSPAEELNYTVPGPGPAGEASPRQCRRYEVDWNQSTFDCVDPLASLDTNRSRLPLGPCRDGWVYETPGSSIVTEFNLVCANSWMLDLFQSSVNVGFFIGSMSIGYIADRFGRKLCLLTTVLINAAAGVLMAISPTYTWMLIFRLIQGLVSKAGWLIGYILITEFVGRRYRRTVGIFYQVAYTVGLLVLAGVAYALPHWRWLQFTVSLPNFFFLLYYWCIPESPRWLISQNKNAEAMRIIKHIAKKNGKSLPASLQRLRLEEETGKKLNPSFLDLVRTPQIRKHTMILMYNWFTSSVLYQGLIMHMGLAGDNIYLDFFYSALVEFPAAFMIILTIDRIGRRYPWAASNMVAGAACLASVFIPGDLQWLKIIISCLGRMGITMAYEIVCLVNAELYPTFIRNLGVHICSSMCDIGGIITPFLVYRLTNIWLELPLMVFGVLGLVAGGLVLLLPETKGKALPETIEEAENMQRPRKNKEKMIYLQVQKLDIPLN
Readout: IC50 (nM)
The figure you give is taken to be in nM; do not add the unit.

1. CC(=O)N1CCN(c2ccc(OC[C@@H]3CO[C@@](Cn4ccnc4)(c4ccc(Cl)cc4Cl)O3)cc2)CC1 (relative stereo) :: 218

Query compound follows.
// query IC50 value for entry CC(=O)N1CCN(c2ccc(OCC3COC(Cn4ccnc4)(c4ccc(Cl)cc4Cl)O3)cc2)CC1 (racemic)
1520
